assay: chemical genetic growth profiling, strain panel (AID 1159580);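 note: tested at 20 µM; growth read once vehicle control cultures reached saturation at 30 °C; 1 = growth at the plate median or of vehicle wells; lower values mean less growth of the strain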; details: S. cerevisiae deletion strains, growth OD, locus YGL173C, strain kem1, stronger effect = lower value
Screen size: about 5,500 compounds; about 2,000 (36%) were called active. Roughly 18% stayed inconclusive and do not appear here. This is one part of the list.
normalized growth: recorded values
metric-name: normalized growth

molecule=CC(C)C(=O)Nc1ccc([N+](=O)[O-])c(C(F)(F)F)c1 experimental_result=1.03
molecule=O=C(O)CN1C(=O)c2cccc3cccc(c23)C1=O experimental_result=0.983
molecule=NC(=O)c1cccc(N)c1 experimental_result=0.984
molecule=O=C1OC(c2ccc(O)cc2)(c2ccc(O)cc2)c2ccccc21 experimental_result=0.996
molecule=O=c1cc(-c2ccccc2O)oc2cc(O)ccc12 experimental_result=0.95
molecule=OCCOCCN1CCN(C2=Nc3ccccc3Sc3ccccc32)CC1 experimental_result=1
